- targetOfAssay: active p38 alpha enzyme (Upstate Biotechnology) (Homo sapiens, UniProt Q16539)
- Construct: purchased Upstate Biotechnology
- Sequence (Q16539 whole entry): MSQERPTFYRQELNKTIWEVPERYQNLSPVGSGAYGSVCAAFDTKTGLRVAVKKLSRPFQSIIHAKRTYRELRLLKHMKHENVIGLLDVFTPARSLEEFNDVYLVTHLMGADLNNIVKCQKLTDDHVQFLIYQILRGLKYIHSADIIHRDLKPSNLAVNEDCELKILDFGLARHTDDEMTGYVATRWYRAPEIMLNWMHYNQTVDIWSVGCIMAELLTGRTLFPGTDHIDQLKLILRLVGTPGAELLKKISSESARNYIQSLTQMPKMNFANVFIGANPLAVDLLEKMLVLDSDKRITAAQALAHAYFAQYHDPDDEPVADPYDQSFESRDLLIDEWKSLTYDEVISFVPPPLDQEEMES
- procedureDetails: p38α biochemical assay (ATP turnover, luminescent detection, Cambrex PKlight)
- assayContext: p38α biochemical assay, Table 1 Biological Activity
pIC50: −log10 of the molar value.

>  <compound>
COc1ccc2cc(C(C)C(=O)N3CCN(Cc4nc(-c5ccc(F)cc5)c(-c5nc(C(=O)NC(C)C)cs5)o4)CC3)ccc2c1 (centres unmarked) [Example 550]

>  <pIC50>
< 6.00

$$$$
>  <compound>
CC(C)NC(=O)c1csc(-c2oc(CNC(=O)C(C)c3ccc(-c4ccccc4)c(F)c3)nc2-c2ccc(F)cc2)n1 (centres unmarked) [Example 324]

>  <pIC50>
< 6.00

$$$$
>  <compound>
CC(C)NC(=O)c1csc(-c2oc(CNC(=O)c3cc(C(C)C)cc(C(C)C)c3O)nc2-c2ccc(F)cc2)n1 [Example 304]

>  <pIC50>
≥ 6.00

$$$$
>  <compound>
Cc1ccc(O)c(C(=O)N2CCN(Cc3nc(-c4ccc(F)cc4)c(-c4nc(C(=O)NC(C)C)cs4)o3)CC2)c1 [Example 382]

>  <pIC50>
≥ 6.00

$$$$
>  <compound>
Cc1nc(Br)sc1C(=O)NCc1onc(-c2ccc(F)cc2)c1-c1nc(C(=O)NC(C)C)cs1 [Example 777]

>  <pIC50>
< 6.00

$$$$
>  <compound>
COc1ccc(Br)c(C(=O)NCc2onc(-c3ccc(F)cc3)c2-c2nc(C(=O)NC(C)C)cs2)c1 [Example 791]

>  <pIC50>
< 6.00

$$$$
>  <compound>
CC(C)NC(=O)c1csc(-c2oc(CN3CCN(C(=O)c4csc5ccccc45)CC3)nc2-c2ccc(F)cc2)n1 [Example 443]

>  <pIC50>
< 6.00

$$$$
>  <compound>
CC(C)NC(=O)c1csc(-c2oc(CN3CCN(C(=O)C(NC(=O)OC(C)(C)C)C(C)C)CC3)nc2-c2ccc(F)cc2)n1 (centres unmarked) [Example 535]

>  <pIC50>
< 6.00

$$$$
>  <compound>
CC(C)CC(NC(=O)OC(C)(C)C)C(=O)NCc1nc(-c2ccc(F)cc2)c(-c2nc(C(=O)NC(C)C)cs2)o1 (centres unmarked) [Example 329]

>  <pIC50>
< 6.00

$$$$
>  <compound>
CONC(=O)c1csc(-c2c(-c3ccc(F)cc3)n[nH]c2C2CCNCC2)n1 [Example 71]

>  <pIC50>
≥ 6.00

$$$$
>  <compound>
CC(=O)c1ccc(C(=O)NCc2nc(-c3ccc(F)cc3)c(-c3nc(C(=O)NC(C)C)cs3)o2)cc1 [Example 167]

>  <pIC50>
≥ 6.00

$$$$
>  <compound>
Cc1ccccc1CC(=O)NCc1nc(-c2ccc(F)cc2)c(-c2nc(C(=O)NC(C)C)cs2)o1 [Example 135]

>  <pIC50>
< 6.00

$$$$
>  <compound>
CC(C)NC(=O)c1csc(-c2c(-c3ccc(F)cc3)noc2CNC(=O)c2ccccc2C(F)(F)F)n1 [Example 724]

>  <pIC50>
< 6.00

$$$$
>  <compound>
CCCOc1ccc(C(=O)N2CCN(Cc3nc(-c4ccc(F)cc4)c(-c4nc(C(=O)NC(C)C)cs4)o3)CC2)cc1 [Example 455]

>  <pIC50>
< 6.00

$$$$
>  <compound>
Cc1ccc(SCC(=O)NCc2onc(-c3ccc(F)cc3)c2-c2nc(C(=O)NC(C)C)cs2)cc1 [Example 704]

>  <pIC50>
< 6.00

$$$$
>  <compound>
CC(C)NC(=O)c1csc(-c2oc(CNC(=O)C3CCc4ccccc43)nc2-c2ccc(F)cc2)n1 (centres unmarked) [Example 164]

>  <pIC50>
< 6.00

$$$$
>  <compound>
CC(C)NC(=O)c1csc(-c2oc(CN3CCN(C(=O)c4ccc([N+](=O)[O-])cc4Cl)CC3)nc2-c2ccc(F)cc2)n1 [Example 509]

>  <pIC50>
< 6.00

$$$$
>  <compound>
CC(C)NC(=O)c1csc(-c2c(-c3ccc(F)cc3)noc2CNC(=O)c2ccccc2)n1 [Example 586]

>  <pIC50>
< 6.00

$$$$
>  <compound>
CC(=O)Nc1cccc(C(=O)N2CCN(Cc3nc(-c4ccc(F)cc4)c(-c4nc(C(=O)NC(C)C)cs4)o3)CC2)c1 [Example 448]

>  <pIC50>
≥ 6.00

$$$$
>  <compound>
Cc1c(C(=O)NCc2onc(-c3ccc(F)cc3)c2-c2nc(C(=O)NC(C)C)cs2)cccc1[N+](=O)[O-] [Example 698]

>  <pIC50>
< 6.00

$$$$
>  <compound>
CC(C)NC(=O)c1csc(-c2c(-c3ccc(F)cc3)noc2CNC(=O)c2cccc(O)c2O)n1 [Example 622]

>  <pIC50>
< 6.00

$$$$
>  <compound>
CC(C)NC(=O)c1csc(-c2c(-c3ccc(F)cc3)noc2CNC(=O)Cc2c(F)cccc2F)n1 [Example 668]

>  <pIC50>
< 6.00

$$$$
>  <compound>
Cc1ccc(C(=O)NCc2onc(-c3ccc(F)cc3)c2-c2nc(C(=O)NC(C)C)cs2)cc1F [Example 624]

>  <pIC50>
< 6.00

$$$$
>  <compound>
CC(C)NC(=O)c1csc(-c2oc(CN3CCNCC3)nc2-c2ccc(F)cc2)n1 [Example 572]

>  <pIC50>
< 6.00

$$$$
>  <compound>
CC(C)NC(=O)c1csc(-c2oc(CN3CCN(C(=O)C4CN(C(=O)OC(C)(C)C)CCN4)CC3)nc2-c2ccc(F)cc2)n1 (centres unmarked) [Example 552]

>  <pIC50>
< 6.00

$$$$
>  <compound>
Cc1ccc(C(=O)NCc2onc(-c3ccc(F)cc3)c2-c2nc(C(=O)NC(C)C)cs2)cc1Br [Example 768]

>  <pIC50>
< 6.00

$$$$
>  <compound>
CC(C)NC(=O)c1csc(-c2c(-c3ccc(F)cc3)noc2CNC(=O)c2ccc(C#N)cc2)n1 [Example 604]

>  <pIC50>
< 6.00

$$$$
>  <compound>
CCN(CC)c1ccc(C(=O)N2CCN(Cc3nc(-c4ccc(F)cc4)c(-c4nc(C(=O)NC(C)C)cs4)o3)CC2)cc1 [Example 497]

>  <pIC50>
≥ 6.00

$$$$
>  <compound>
COc1ccc(OC)c(C(=O)NCc2onc(-c3ccc(F)cc3)c2-c2nc(C(=O)NC(C)C)cs2)c1 [Example 699]

>  <pIC50>
< 6.00

$$$$

* * *

- targetOfAssay: active p38 alpha enzyme (Upstate Biotechnology) (Homo sapiens, UniProt Q16539)
- Construct: purchased Upstate Biotechnology
- procedureDetails: p38α biochemical assay (ATP turnover, luminescent detection, Cambrex PKlight)
- assayContext: p38α kinase; Table 1 Biological Activity
pIC50: −log10 of the molar value.
Reported pIC50 is given for each of the following compounds.

>  <compound>
Cc1nc(-c2ccc(F)cc2)c(-c2nc(C(=O)N3CCN(c4ccccc4F)CC3)cs2)s1

>  <pIC50>
< 6.00

$$$$
>  <compound>
CC(C)NC(=O)c1csc(-c2c(-c3ccc(F)cc3)n[nH]c2C2CCN(C(=O)C3CCCN3C(=O)OC(C)(C)C)CC2)n1 (stereo not shown)

>  <pIC50>
< 6.00

$$$$
>  <compound>
Cc1nc(-c2ccc(F)cc2)c(-c2nc(C(=O)NCCCNC(=O)OC(C)(C)C)cs2)s1

>  <pIC50>
≥ 6.00

$$$$
>  <compound>
CC(C)NC(=O)c1csc(-c2c(-c3ccc(F)cc3)noc2CNCCN2CCCCC2)n1

>  <pIC50>
< 6.00

$$$$
